Readings of growth for the listed molecules
# System: SNB-75 CNS
# Measurement notes: NCI-60 one-dose screen, 48 h (100 = growth as untreated, 0 = no growth, -100 = all killed)
# Run parameters: 10 µM unless noted
About 83,000 compounds went through this panel and 20% of them were active in at least one assay; those are over-represented in the sample as a whole. Activity calls are given as the source filed them. Rule for the calls: active = growth percent below 10; inactive = the rest.

- Molecule: "O=C(Nc1ccc2ncnc(Nc3ccc(F)c(Cl)c3)c2c1)c1ccccc1"
  growth: "28.5% (inactive)"
- Molecule: "C#C[C@@]1(O)[C@@H](CO)O[C@@H](n2cc(F)c3c(N)ncnc32)[C@@H]1O"
  growth: "-34.3% (active)"
- Molecule: "COC(=O)/C=C1\\SC(=Nc2ccc(F)cc2)N(CCc2c[nH]c3ccccc23)C1=O"
  growth: "108% (inactive)"

Consider the molecule "COc1cc(NC(=O)c2cc(O)c(C/C=C(\C)CCC=C(C)C)c(O)c2)cc2c1O[C@]1(C)CC[C@@H](O)C(C)(C)[C@H]1C2" tested on SNB-75 CNS; state its growth. 0.372% (active)

Send back SNB-75 CNS growth of OCCNc1nc(NCCO)nc(Nc2ccc(C3=NN(c4cc(Cl)cc(Cl)c4)C(c4ccc(Cl)cc4)C3)cc2)n1 (stereo not given) only. -6.43% (active)

State growth on SNB-75 CNS. Entry: "O=[N+]([O-])c1ccc(N=Nc2c(O)c(N=Nc3cc([N+](=O)[O-])cc([N+](=O)[O-])c3O)cc(N=Nc3cc(S(=O)(=O)O)cc4cc(S(=O)(=O)O)cc(O)c34)c2O)cc1" 91.1% (inactive)

Using SNB-75 CNS as the test system, report measured growth of "CCCCOc1nc2ccc(C)cc2cc1/C=C/C(=O)/C=C/c1ccc2c(c1)OCO2" . 97.1% (inactive)

// fetch growth; item: "Nc1c(C(=O)Nc2ccccc2Cl)sc2nc3c(cc12)CN(Cc1ccccc1)CC3" ; system: SNB-75 CNS 113% (inactive)

Answer briefly: growth recorded on SNB-75 CNS for "COC(=O)CCc1n(Cc2ccc3ccccc3c2)c2ccccc2[n+]1Cc1ccc2ccccc2c1" -8.15% (active)

---

# Test system: SW-620 colon
# Measurement notes: NCI-60 one-dose screen, 48 h (100 = growth as untreated, 0 = no growth, -100 = all killed)
# Run parameters: 10 µM unless noted
Compounds without any hit were thinned out: in the full panel of roughly 83,000, 20% have a hit.
As shown below, each of these compounds has a reported growth value.
# output: bare number, implied unit %

Worked cases, answers included:
- Compound: "CCOC(=O)C1=C(C)n2nc(CC#N)c(C#N)c2NC1c1ccc(CC)cc1 (stereo unspecified)"
  Unit abbrev: "%"
  Reported: 97.6
- Compound: "C=C1C(=O)O[C@H]2[C@H]1CC/C(COC(=O)NCc1nc3ccccc3[nH]1)=C\\CC[C@@]1(C)O[C@@H]21"
  Unit abbrev: "%"
  Reported: 25.2
- Compound: "COc1cc(C)ccc1Oc1nc(Nc2ccc(N3CCOCC3)cc2)ncc1N=Cc1cc(C(F)(F)F)cc(C(F)(F)F)c1"
  Unit abbrev: "%"
  Reported: 80.5

Identify measured growth associated with "S=C(Nc1ccc(Cl)cc1)c1ccccn1" 100

Read off the recorded growth for "CCN1CCC[C@H]1c1cc(O)c2c(c1OC)C[C@H]1C[C@H]3[C@H](N)C(=O)C(C(N)=O)=C(O)[C@@]3(O)C(=O)C1=C2O" 1.96

Specify measured growth for "O=C1Nc2ccc(Cl)cc2/C1=N/c1nc(-c2ccc(Cl)cc2)cs1" . 12.9

Write down growth measured for item "COc1cc(C(=O)Nc2cc(OC)c3ccn(C)c3c2)cc2c1C[C@]1(C)CC[C@@H](O)C(C)(C)[C@H]1O2" 2.19

Note growth for the compound shown: "c1ccc(-c2n(Cc3ccc4ccccc4n3)cc[n+]2Cc2ccc3ccccc3c2)cc1" 8.55

Answer with the recorded growth of COc1ccc(-c2cc(C(=O)N3N=C(c4ccc(N)cc4)CC3c3ccc(OC)cc3)c3cc(OC)ccc3n2)cc1 (stereo unspecified) only. 30.1

// fetch growth given entry "N#C/C(=C/c1ccc(O)c([N+](=O)[O-])c1)c1nc(-c2ccc([N+](=O)[O-])cc2)cs1" 54.2

Supply recorded growth for "O=C1CCc2ccccc2N1" here. 102

Check the records and state growth for "Fc1ccc(N/N=C/c2ccc(-n3cccn3)cc2)cc1" 79.6

Annotate the compound "Cc1c(O)c(=O)ccn1-c1nc2ccccc2s1" with its measured growth. 94.9

Give the reported growth for this compound. "CCOC(=O)CC[C@H](NC(=O)c1ccc(NC)c2ccccc12)C(=O)OCC" 93.6

Tell me growth reported for "Cc1cc(Cl)cc(CN(Cc2ccccc2)Cc2c(O)ccc3ccccc23)c1O" 105

Look up and state reported growth for "O=C(O)COc1ccc2c(=O)c3sc4c(=O)c5ccccc5c(=O)c4c3c(=O)c2c1" 10.1

Quote growth reported for "NS(=O)(=O)c1ccc(-n2ncc(NC(=O)Nc3ccc(S(=O)(=O)Nc4nccs4)cc3)c2-c2ccccc2)cc1" please. 98.5

Tell me its growth given "CNc1cccc2c1C(=O)c1cccc(N)c1C2=O" as the entry. 63.1

Determine from records and report growth for COc1ccc(C2=NN(c3ccc(S(N)(=O)=O)cc3)C(c3ccc(Cl)cc3)C2)c(O)c1 (stereo unspecified) 76.2

Determine its reported growth: Cc1ccc(C2CC(c3ccc(Nc4nc(NCCO)nc(NCCO)n4)cc3)=NN2c2ccc(Cl)cc2)cc1 (stereo unspecified) 80.4

// Input: "O=C(Nc1ccc2ncnc(Nc3ccc(F)c(Cl)c3)c2c1)c1ccccc1" . Output its growth only. 88
